TESTED TARGET: neurokinin A receptor (NK-2 receptor) (Rattus norvegicus)
Sequence (P16610 whole entry): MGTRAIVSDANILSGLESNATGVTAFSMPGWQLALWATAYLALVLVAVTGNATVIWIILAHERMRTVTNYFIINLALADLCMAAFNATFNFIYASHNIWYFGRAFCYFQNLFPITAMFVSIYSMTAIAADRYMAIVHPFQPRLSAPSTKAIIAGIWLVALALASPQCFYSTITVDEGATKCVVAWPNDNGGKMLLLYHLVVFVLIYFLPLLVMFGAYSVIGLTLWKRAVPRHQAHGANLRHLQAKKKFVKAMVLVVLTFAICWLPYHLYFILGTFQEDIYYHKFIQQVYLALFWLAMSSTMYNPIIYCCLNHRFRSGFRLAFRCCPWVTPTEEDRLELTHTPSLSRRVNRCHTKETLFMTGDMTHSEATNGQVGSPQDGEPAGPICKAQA
PROTOCOL NOTES: cell-based
Non-standard residues stand in square brackets, D forms with d. Residues, ends and D or L forms follow the SMILES beside them.
Field: Kb. Provide a value for each of the compounds that follow.
Give bare numbers, in nM.

Some compounds with recorded Kb:
CC(C)[C@H](NC(=O)[C@@H](Cc1c[nH]c2ccccc12)NC(=O)[C@H](Cc1ccc(O)cc1)NC(=O)[C@H](CC(=O)O)NC(=O)[C@@H](N)CCCCN)C(=O)N[C@H](Cc1c[nH]c2ccccc12)C(=O)N[C@H](Cc1c[nH]c2ccccc12)C(=O)N[C@@H](CCCNC(=N)N)C(N)=O (H-KDY[dW]V[dW][dW]R-NH2)    339
CC(C)[C@H](NC(=O)[C@@H](Cc1c[nH]c2ccccc12)NC(=O)[C@H](Cc1ccc(O)cc1)NC(=O)[C@H](CC(=O)O)NC(=O)[C@@H](N)CCCNC(=N)N)C(=O)N[C@H](Cc1c[nH]c2ccccc12)C(=O)N[C@H](Cc1c[nH]c2ccccc12)C(=O)N[C@@H](Cc1ccccc1)C(N)=O (H-RDY[dW]V[dW][dW]F-NH2)    575
CSCC[C@H](NC(=O)[C@@H](Cc1c[nH]c2ccccc12)NC(=O)[C@@H](Cc1c[nH]c2ccccc12)NC(=O)[C@@H](NC(=O)[C@@H](Cc1c[nH]c2ccccc12)NC(=O)[C@H](Cc1ccc(O)cc1)NC(=O)[C@H](CC(=O)O)NC(=O)[C@@H](N)CCCNC(=N)N)C(C)C)C(N)=O (H-RDY[dW]V[dW][dW]M-NH2)    251

Would you mind giving Kb for every compound in the list below?
1. CC(C)[C@H](NC(=O)[C@@H](Cc1c[nH]c2ccccc12)NC(=O)[C@H](Cc1ccc(O)cc1)NC(=O)[C@H](CC(=O)O)NC(=O)[C@@H](N)CCCNC(=N)N)C(=O)N[C@H](Cc1c[nH]c2ccccc12)C(=O)N[C@H](Cc1c[nH]c2ccccc12)C(=O)N[C@@H](CCCNC(=N)N)C(N)=O [H-Arg-Asp-Tyr-DTrp-Val-DTrp-DTrp-Arg-NH2] (H-RDY[dW]V[dW][dW]R-NH2)
2. CC(C)[C@H](NC(=O)[C@@H](Cc1c[nH]c2ccccc12)NC(=O)[C@H](Cc1ccc(O)cc1)NC(=O)[C@@H](N)CC(=O)O)C(=O)N[C@H](Cc1c[nH]c2ccccc12)C(=O)N[C@H](Cc1c[nH]c2ccccc12)C(=O)N[C@@H](CCCNC(=N)N)C(N)=O (H-DY[dW]V[dW][dW]R-NH2)

[A]
[316, 251]

[Q] Quick check: Kb of CC(C)[C@H](NC(=O)[C@@H](Cc1c[nH]c2ccccc12)NC(=O)[C@H](Cc1ccc(O)cc1)NC(=O)[C@H](CC(=O)O)NC(=O)[C@@H](N)[C@@H](C)O)C(=O)N[C@H](Cc1c[nH]c2ccccc12)C(=O)N[C@H](Cc1c[nH]c2ccccc12)C(=O)N[C@@H](CCCNC(=N)N)C(N)=O (H-TDY[dW]V[dW][dW]R-NH2) ?
[A] 251
